Biological target: T1, AFP p26 (human, UniProt P02771 381-609)
T1 construct: The construct used is not described
T1 sequence: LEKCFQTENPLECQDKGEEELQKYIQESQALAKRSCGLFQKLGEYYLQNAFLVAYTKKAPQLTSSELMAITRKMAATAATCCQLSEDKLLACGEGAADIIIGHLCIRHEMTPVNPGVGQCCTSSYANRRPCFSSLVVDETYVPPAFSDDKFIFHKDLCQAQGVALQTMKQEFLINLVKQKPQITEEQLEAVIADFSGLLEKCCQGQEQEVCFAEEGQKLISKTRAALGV
Assay: phage ELISA, A450 target/A450 IgG1-Fc
Listed here are binders together with their documented ELISA_avg.
Reported property: ELISA_avg

>>> value_measured("SEQ ID NO 806 (designed binder) MGSWHEFWVRLEAIESRLFALGGSEAELAAFEKEIAAFESELQAYKGKGNPEVESLRVQAAHIRSWLQAYRHN")
"26.9 ratio"
>>> value_measured("SEQ ID NO 868 (designed binder) MGSWIHFKNDLAVIKDELEALGGSEAELARFEIMIAWFEDALQWYKGKGNPEVEALRKEAAAIRDELQAYRHN")
"17.9 ratio"
>>> value_measured("SEQ ID NO 844 (designed binder) MGSWVRFKTELAYIKESLEALGGSEAELAMFESEIAIFEHSLQTYKGKGNPEVEALRKEAAAIRDELQAYRHN")
"20.5 ratio"
>>> value_measured("SEQ ID NO 817 (designed binder) MGSWYEFDHRLMAISFRLVALGGSEAELAAFEKEIAAFESELQAYKGKGNPEVETLRRRAANIRHLLQAYRHN")
"20.1 ratio"
>>> value_measured("SEQ ID NO 845 (designed binder) MGSWYLFKTELAAIKYRLEALGGSEAELASFEYEIAWFEHILQFYKGKGNPEVEALRKEAAAIRDELQAYRHN")
"20.1 ratio"

Every entry's value here was drawn from patent US20230125550A1.
